target: Serine/threonine-protein kinase Sgk1 (Homo sapiens); conditions: at 1 µM;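 also: mean percent inhibition of SGK1, from the GSK PKIS screening panel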
Measured quantity: inhibition (%)
One number for each entry, in %.

Study these solved cases before continuing.
>>> meas_value("NS(=O)(=O)c1cccc(Nc2cc(-c3ccc(F)cc3)n[nH]2)c1")
7.2
>>> meas_value("COc1cccc(-n2ncc3c(N/N=C/c4ccc(C)cc4)ncnc32)c1")
3.62
>>> meas_value("Cc1cc(Cl)cc2c1NC(=O)C2=NNc1ccc(S(N)(=O)=O)cc1")
3.67

Consider the record given below.
Reported inhibition for Nc1nccc(-c2c(-c3ccc(F)cc3)ncn2CCCN2CCOCC2)n1 was 5.95

----------
target: Mitogen-activated protein kinase 9 (Homo sapiens); details: at 0.1 µM;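 also: values are mean inhibition of JNK2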
What inhibition was measured for each of the following?
Answers are plain numbers, in %.

Example entries and their recorded answers appear below.
>>> meas_value("CS(=O)(=O)CCNCc1nc(-c2ccc3ncnc(Nc4ccc(OCc5cccc(C(F)(F)F)c5)cc4)c3c2)cs1")
2.97
>>> meas_value("CN1CCN(C(=O)c2ccc(NC(=O)Nc3ccc(N(C)c4ccnc(Nc5ccc(CS(C)(=O)=O)cc5)n4)cc3)cc2)CC1")
0.8
>>> meas_value("COc1cccc(-n2nc(C)c3c(N/N=C(\\C)c4ccncc4)ncnc32)c1")
1.92
>>> meas_value("CCS(=O)(=O)c1ccc(OC)c(Nc2ncc(-c3cccc(OC)c3)o2)c1")
3.19
>>> meas_value("CCn1c(-c2nonc2N)nc2c(C#CC(C)(C)O)nc(OCCNC)cc21")
3.85

// for each compound below, give its inhibition
1. Cc1ccc2c(c1)/C(=N/Nc1ccc(S(N)(=O)=O)cc1)C(=O)N2
2. CN(C)CCCn1c(-c2nonc2N)nc2cnccc21
3. [O-][S+]1CCN(Cc2ccc(-c3ccc4ncnc(Nc5ccc(OCc6ccccc6)c(Cl)c5)c4c3)o2)CC1

# output
1. 2.38
2. 5.36
3. -0.11

Record inhibition per entry; entries follow.
1. Cc1ccc2c(-c3ccnc(Nc4cccc(C(F)(F)F)c4)n3)c(-c3ccccc3)nn2n1
2. Cc1nc(-c2ccccc2)n2nc(NCCCN3CCOCC3)ncc12

# output
1. 30.1
2. 1.8

----------
biological target: Dual specificity protein kinase CLK3 (Homo sapiens); conditions: at 0.1 µM
Description: GSK_PKIS: CLK3 mean inhibition at 0.1 uM [Nanosyn]
Measured quantity: inhibition (%)
Numbers only, in %.

The following compounds have reported results that may help.
>>> meas_value("CCS(=O)(=O)c1ccc(OC)c(Nc2nccc(N(C)c3ccc4c(C)n[nH]c4c3)n2)c1")
1.1
>>> meas_value("Cc1ccc(C(=O)NC2CC2)cc1-c1ccc2[nH]ncc2c1")
-0.51
>>> meas_value("NS(=O)(=O)c1cccc(-c2cc3ccncc3cc2OCc2ccccc2)c1")
1.46

Need inhibition for each of these compounds.
1. CN(C)C(=O)O[C@@H]1CN[C@@H](C#Cc2cc3ncnc(Nc4ccc(OCc5cccc(F)c5)c(Cl)c4)c3s2)C1
2. CS(=O)(=O)Nc1cccc(-c2ccc3c(NC(=O)C4CC4)n[nH]c3c2)c1
3. NS(=O)(=O)c1ccc(NC=C2C(=O)Nc3ccc4ncsc4c32)cc1

# output
-0.16
-0.87
3.57

Each compound below has a reported value. Please supply its inhibition.
1. COc1cccc(-n2ncc3c(N/N=C/c4ccc(S(C)(=O)=O)cc4)ncnc32)c1
2. c1ccc(Cc2nc3ccc(Nc4ncnc5ccccc45)cc3[nH]2)cc1
3. COc1cccc(-n2ncc3c(N/N=C/c4ccc(C)cc4)ncnc32)c1
4. CC(C)c1ccc2c(c1)NC(=O)/C2=N/Nc1ccc(S(N)(=O)=O)cc1
5. [O-][S+]1CCN(Cc2ccc(-c3ccc4ncnc(Nc5ccc(OCc6ccccc6)c(Cl)c5)c4c3)o2)CC1

# output
[-0.53, 2.76, 1.22, -0.29, 0.43]

----------
Please go through the items and note down their inhibition.
test system: Mast/stem cell growth factor receptor Kit (Homo sapiens), P10721 [V560G]; conditions: at 0.1 µM
Sequence (P10721 whole entry V560G): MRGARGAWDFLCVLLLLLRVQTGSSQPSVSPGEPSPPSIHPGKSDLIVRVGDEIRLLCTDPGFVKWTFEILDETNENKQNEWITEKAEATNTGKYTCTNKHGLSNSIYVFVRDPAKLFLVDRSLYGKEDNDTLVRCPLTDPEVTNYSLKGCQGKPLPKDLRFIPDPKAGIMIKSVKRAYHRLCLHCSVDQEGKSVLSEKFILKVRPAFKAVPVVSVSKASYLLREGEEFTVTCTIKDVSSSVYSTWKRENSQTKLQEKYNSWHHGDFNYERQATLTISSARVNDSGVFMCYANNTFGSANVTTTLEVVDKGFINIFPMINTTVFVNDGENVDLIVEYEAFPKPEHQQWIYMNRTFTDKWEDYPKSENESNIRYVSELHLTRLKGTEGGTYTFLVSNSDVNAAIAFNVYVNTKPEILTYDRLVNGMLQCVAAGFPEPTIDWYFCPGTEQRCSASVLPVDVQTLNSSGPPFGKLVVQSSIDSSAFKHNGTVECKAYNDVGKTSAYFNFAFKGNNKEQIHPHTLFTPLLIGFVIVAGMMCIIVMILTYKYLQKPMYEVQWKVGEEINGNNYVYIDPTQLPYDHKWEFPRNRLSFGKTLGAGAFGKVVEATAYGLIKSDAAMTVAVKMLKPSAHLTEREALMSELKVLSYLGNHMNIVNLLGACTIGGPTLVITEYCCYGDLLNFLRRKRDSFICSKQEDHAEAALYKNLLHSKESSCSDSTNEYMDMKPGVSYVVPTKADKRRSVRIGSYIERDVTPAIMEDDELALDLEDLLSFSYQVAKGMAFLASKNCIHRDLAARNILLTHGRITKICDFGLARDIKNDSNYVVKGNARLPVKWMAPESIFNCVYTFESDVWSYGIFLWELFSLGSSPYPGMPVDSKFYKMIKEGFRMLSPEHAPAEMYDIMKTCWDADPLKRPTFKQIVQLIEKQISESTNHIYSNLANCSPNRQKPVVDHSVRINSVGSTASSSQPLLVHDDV
One number for each entry, in %.

>>> meas_value("CCOc1nccc2c1nc(-c1nonc1N)n2CC")
4.82
>>> meas_value("CCn1c(-c2nonc2N)nc2c(C#CC(C)(C)O)nc(OCCNC)cc21")
-4.02
>>> meas_value("ON=C1CCc2cc(-c3nc(C4CCNCC4)[nH]c3-c3ccncc3)ccc21")
-2.31
>>> meas_value("[O-][S+]1CCN(Cc2ccc(-c3ccc4ncnc(Nc5ccc(OCc6ccccc6)c(Cl)c5)c4c3)o2)CC1")
-1.31
>>> meas_value("COc1cc(/C=N/Nc2ncnc3c2cnn3C(C)C)ccc1O")
1.9

Dear reader, for each entry below, please note its inhibition.
1. c1ccc(Nc2ncc(-c3ccccc3)o2)cc1
2. COc1cccc(-n2ncc3c(N/N=C/c4ccc(C)cc4)ncnc32)c1
3. COc1cccc(-n2ncc3c(N/N=C/c4ccc(S(C)(=O)=O)cc4)ncnc32)c1
4. Nc1nccc(-c2c(-c3ccc(F)cc3)nn3cc(C(F)(F)F)ccc23)n1
5. Cc1ccc2c(c1)/C(=N/Nc1ccc(S(N)(=O)=O)cc1)C(=O)N2
6. Cc1ccc2c(-c3ccnc(Nc4cccc(C(F)(F)F)c4)n3)c(-c3ccccc3)nn2n1
7. CCn1c(-c2nonc2N)nc2ccc(F)cc21
8. COc1cc2ncnc(Nc3ccc(C)c(O)c3)c2cc1OC

# output
1: 1.47; 2: -2.84; 3: 1.83; 4: 1.43; 5: 1.27; 6: 2.8; 7: -1.12; 8: 5.53

----------
molecular target: Proto-oncogene tyrosine-protein kinase Src (Homo sapiens) (UniProt P12931); details: at 1 µM;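 also: each value is an averaged percent inhibition of SRC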
Sequence (P12931 2-536 limits assumed): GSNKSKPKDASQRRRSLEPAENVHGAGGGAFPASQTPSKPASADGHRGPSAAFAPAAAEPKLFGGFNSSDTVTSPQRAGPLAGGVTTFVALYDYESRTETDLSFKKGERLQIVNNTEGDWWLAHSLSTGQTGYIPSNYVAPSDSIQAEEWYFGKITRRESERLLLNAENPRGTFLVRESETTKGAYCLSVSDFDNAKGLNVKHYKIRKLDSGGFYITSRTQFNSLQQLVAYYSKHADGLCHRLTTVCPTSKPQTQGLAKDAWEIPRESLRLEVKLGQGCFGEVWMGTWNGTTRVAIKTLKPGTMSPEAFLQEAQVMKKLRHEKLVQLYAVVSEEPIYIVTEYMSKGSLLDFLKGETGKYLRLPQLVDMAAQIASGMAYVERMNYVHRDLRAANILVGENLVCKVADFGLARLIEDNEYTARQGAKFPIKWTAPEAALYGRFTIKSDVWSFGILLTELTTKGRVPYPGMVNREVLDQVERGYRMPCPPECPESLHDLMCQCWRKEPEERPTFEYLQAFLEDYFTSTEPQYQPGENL
Provide the reported inhibition of each item.
Answers are plain numbers, in %.

Some compounds with known inhibition results, for comparison:
>>> meas_value("NC(=O)c1sc(-n2cnc3ccccc32)cc1OCc1ccccc1Br")
12.9
>>> meas_value("O=C1Nc2ccc(-c3cccnc3)cc2C1=Cc1cc(Br)c(O)c(Br)c1")
12.1
>>> meas_value("CN1CCN(C(=O)c2ccc(NC(=O)Nc3ccc(N(C)c4ccnc(Nc5ccc(CS(C)(=O)=O)cc5)n4)cc3)cc2)CC1")
42.2
>>> meas_value("CCCN1CCCC(c2ccc(Nc3nc(Nc4cc(F)ccc4C(N)=O)c4cc[nH]c4n3)c(OC)c2)C1 (stereo not given)")
14.6

Record COc1cccc(-n2nc(C)c3c(N/N=C(\C)c4ccncc4)ncnc32)c1 . Reported inhibition: 3.26

----------
Give measured inhibition for each item. Keep answers brief.
target: Proto-oncogene tyrosine-protein kinase receptor Ret (Homo sapiens); settings: at 0.1 µM;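 also: reported figure is the mean of RET inhibition measurements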
One number for each entry, in %.

# count of solved cases: 3
>>> meas_value("COc1cc(Nc2nccc(-c3cnn4ncccc34)n2)cc(OC)c1")
9.58
>>> meas_value("Cc1ccc(Nc2ccnc(Nc3cccc(C(N)=O)c3)n2)cc1O")
73.5
>>> meas_value("COc1cc(/C=N/Nc2ncnc3c2cnn3C(C)C)ccc1O")
61.1

Give me inhibition for each of these compounds, listed below.
1. N#Cc1cccc(Nc2nccc(-c3cnn4ncccc34)n2)c1
2. COC(=O)c1ccc2c(c1)C(=Cc1cc(Br)c(O)c(Br)c1)C(=O)N2
3. Cc1ccc(NC(=O)CC2CC2)cc1-c1ccc(C(=O)NCC2CC2)cc1

# output
[8.71, 7.67, 4.79]

----------
target: Serine/threonine-protein kinase Chk1 (Homo sapiens); conditions: at 1 µM;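 also: mean inhibition of CHEK1, part of the GSK PKIS profiling set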
Measured quantity: inhibition (%)
Answers are plain numbers, in %.

Record excerpt, results attached:
>>> meas_value("N#Cc1cccc(Nc2nccc(-c3cnn4ncccc34)n2)c1")
3.73
>>> meas_value("c1ccc(Nc2ncc(-c3ccccc3)o2)cc1")
8.99

# per-item lookup of inhibition; items listed below
1. Cc1ccc2c(-c3ccnc(Nc4ccc5c(c4)OCCO5)n3)c(-c3ccc(C(F)(F)F)cc3)nn2n1
2. C[C@@H](Oc1cc(-n2cnc3ccc(OC[C@@H](O)CO)cc32)sc1C(N)=O)c1ccccc1Cl
3. O=C(Nc1ccc(Oc2ccc3[nH]c(NC(=O)c4ccco4)nc3c2)cc1)Nc1cc(C(F)(F)F)ccc1F
4. CCS(=O)(=O)c1ccc(OC)c(Nc2ncc(-c3cccc(OC)c3)o2)c1
5. COc1cc2ncn(-c3cc(OCc4ccccc4S(C)(=O)=O)c(C#N)s3)c2cc1OC

# output
[0.1, -1.83, -0.68, 3.19, 23.3]

----------
target: Serine/threonine-protein kinase PLK1 (Homo sapiens) (UniProt P53350); details: at 1 µM;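 also: reported value is a mean PLK1 inhibition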
Sequence (P53350 whole entry): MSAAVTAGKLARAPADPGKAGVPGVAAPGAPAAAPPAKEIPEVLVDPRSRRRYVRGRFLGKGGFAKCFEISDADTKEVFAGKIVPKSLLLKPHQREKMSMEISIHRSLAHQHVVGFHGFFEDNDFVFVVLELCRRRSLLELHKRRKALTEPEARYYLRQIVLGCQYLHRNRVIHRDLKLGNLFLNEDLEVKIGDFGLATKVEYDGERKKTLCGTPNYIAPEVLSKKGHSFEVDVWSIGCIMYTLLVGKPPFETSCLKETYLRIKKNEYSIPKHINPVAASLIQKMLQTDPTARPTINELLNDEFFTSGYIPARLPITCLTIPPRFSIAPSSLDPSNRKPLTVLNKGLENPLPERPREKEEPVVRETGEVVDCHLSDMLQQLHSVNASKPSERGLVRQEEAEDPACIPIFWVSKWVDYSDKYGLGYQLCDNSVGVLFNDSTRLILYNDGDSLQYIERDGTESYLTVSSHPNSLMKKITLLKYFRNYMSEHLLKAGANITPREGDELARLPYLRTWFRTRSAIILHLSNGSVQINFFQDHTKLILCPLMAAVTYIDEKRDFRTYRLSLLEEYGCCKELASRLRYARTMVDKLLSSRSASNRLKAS
I would appreciate it if you labelled entries satisfied when inhibition is 3% or higher, otherwise not satisfied.

# input Hi team, for Cc1nc(-c2ccccc2)n2nc(NCCCN3CCOCC3)ncc12 , is the recorded inhibition at or above 3%?
# output satisfied

# input Does the compound O=C1Nc2ccc(-c3cccnc3)cc2C1=Cc1cc(Br)c(O)c(Br)c1 have recorded inhibition that is 3% or more?
# output satisfied

----------
biological target: Aurora kinase C (Homo sapiens); conditions: at 0.1 µM;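 also: values are the mean inhibition of Aurora-C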
I'd be grateful if you could share measured inhibition for these entries.
Answers are plain numbers, in %.

Some solved entries appear below for comparison.
>>> meas_value("Cc1ccc(NC(=O)CC2CC2)cc1-c1ccc(C(=O)NCC2CC2)cc1")
1.19
>>> meas_value("COc1ccc(-c2nn3ncccc3c2-c2ccnc(Nc3cccc(C(F)(F)F)c3)n2)cc1")
1.98
>>> meas_value("COc1cc2ncn(-c3cc(OCc4ccccc4S(C)(=O)=O)c(C#N)s3)c2cc1OC")
17.7

I would be grateful if you could provide inhibition for each of the following entries.
1. CN(C)C(=O)O[C@@H]1CN[C@@H](C#Cc2cc3ncnc(Nc4ccc(OCc5cccc(F)c5)c(Cl)c4)c3s2)C1
2. c1ccc(Cc2nc3ccc(Nc4ncnc5ccccc45)cc3[nH]2)cc1
3. COc1cc2ncnc(Nc3ccc(C)c(O)c3)c2cc1OC
4. Cc1ccc(O)cc1Nc1ccnc2ccc(S(C)(=O)=O)cc12
5. [O-][S+]1CCN(Cc2ccc(-c3ccc4ncnc(Nc5ccc(OCc6ccccc6)c(Cl)c5)c4c3)o2)CC1
6. CCn1c(-c2nonc2N)nc2c(C#CC(C)(C)O)nc(OCCNC)cc21
7. C[C@@H](Oc1cc(-n2cnc3ccc(OC[C@@H](O)CO)cc32)sc1C(N)=O)c1ccccc1Cl
8. CN(c1ccc(NC(=O)Nc2ccc(OC(F)(F)F)cc2)cc1)c1ccnc(Nc2cccc(S(N)(=O)=O)c2)n1

# output
1: 0.89; 2: 4.08; 3: 1.17; 4: 0.93; 5: -0.09; 6: -0.74; 7: -1.38; 8: 30.7

Please state inhibition for every molecule in the list that follows.
1. N#Cc1cccc(Nc2nccc(-c3cnn4ncccc34)n2)c1
2. Cc1cc(-c2ccccn2)cc(C)c1/C=C/c1cncc(-c2nn[nH]n2)c1
3. Nc1nccc(-c2c(-c3ccc(F)cc3)ncn2CCCN2CCOCC2)n1

# output
1: 18.5; 2: 4.2; 3: 0.25

// batch mode: one inhibition value per listed entry
1. Cc1ccc(Nc2ccnc(Nc3cccc(C(N)=O)c3)n2)cc1O
2. ON=C1CCc2cc(-c3nc(C4CCNCC4)[nH]c3-c3ccncc3)ccc21
3. COc1ccc2ncnc(Nc3ccc(OCc4ccccc4)cc3)c2c1
4. O=S(=O)(CCOCc1ccc(-c2ccc3ncnc(Nc4ccc(OCc5cccc(F)c5)c(Cl)c4)c3c2)o1)c1ccccc1
5. COC(=O)c1ccc2c(c1)C(=Cc1cc(Br)c(O)c(Br)c1)C(=O)N2
6. Nc1nccc(C#Cc2cncnc2Nc2ccc(OCc3cccc(F)c3)c(Cl)c2)n1

# output
8.25
-0.7
1.84
-0.03
-0.01
3.04
